- Tested On: Itk (Homo sapiens)
- Construct: Kinases are expressed as either kinase domains or full length constructs; made in house
- Sequence (Q08881 whole entry, species assumed, the tested form may be a part): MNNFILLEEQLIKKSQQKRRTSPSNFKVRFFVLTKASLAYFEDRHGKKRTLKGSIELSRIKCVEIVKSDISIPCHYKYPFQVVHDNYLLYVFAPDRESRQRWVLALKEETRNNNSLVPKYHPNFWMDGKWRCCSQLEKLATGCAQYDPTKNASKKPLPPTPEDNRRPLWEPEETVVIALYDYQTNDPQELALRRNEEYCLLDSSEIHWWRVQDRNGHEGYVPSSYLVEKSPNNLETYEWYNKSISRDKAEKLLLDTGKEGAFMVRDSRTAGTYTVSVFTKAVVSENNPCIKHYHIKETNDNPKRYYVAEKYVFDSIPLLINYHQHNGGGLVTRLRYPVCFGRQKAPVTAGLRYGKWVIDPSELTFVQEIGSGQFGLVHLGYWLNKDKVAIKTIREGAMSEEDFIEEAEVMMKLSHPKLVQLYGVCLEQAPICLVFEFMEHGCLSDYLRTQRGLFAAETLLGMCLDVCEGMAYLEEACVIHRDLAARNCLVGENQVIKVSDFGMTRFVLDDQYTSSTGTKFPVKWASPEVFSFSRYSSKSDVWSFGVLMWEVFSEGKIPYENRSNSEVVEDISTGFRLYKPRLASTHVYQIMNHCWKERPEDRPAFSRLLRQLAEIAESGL
- Assay Text: Kinase inhibition assay (33P transfer), Itk
- Assay type: biochemical
- Measurement Context: Table 3; read-out: Itk-1
pIC50: −log10 of the molar value.
Readout Name: pIC50

Illustrative cases are given below, each with its answer.
COC(=O)c1cc(Nc2ncnc(Nc3cc(-c4ccco4)n[nH]3)n2)cc(C(=O)OC)c1; < 4.99
COc1cc(Nc2ncnc(Nc3ccc(Br)c(Cl)c3)n2)cc(OC)c1OC; 5.12 to 5.29
COc1cc(Nc2ncnc(N3CCN(C(=O)OC(C)(C)C)CC3)n2)cc(OC)c1OC; < 5.00
O=c1[nH]c2ccccc2n1-c1ncnc(Nc2cccc([N+](=O)[O-])c2)n1; < 4.89
COc1cc(Nc2nc3ccccc3n2-c2ncnc(Nc3cc(OC)c(OC)c(OC)c3)n2)cc(OC)c1; < 5.07

Given the entry `COc1cc(Nc2ncnc(-c3cccc(Cl)c3)n2)cc(OC)c1OC` , report its measured pIC50.
< 4.92

Need pIC50, item `COc1cccc(NC(=O)Nc2ncnc(Nc3cc(OC)c(OC)c(OC)c3)n2)c1`
< 4.98

I would be grateful if you could share the reported pIC50 for `C#Cc1cccc(Nc2ncnc(Nc3cc(OC)c(OC)c(OC)c3)n2)c1` .
< 4.92
